assay-summary: Evaluation of brain penetration properties
Format: in vivo, BALB/cA mice
cond: mouse, brain; 0.5 hours after oral 50 mg/kg/day, BALB/cA mice; read-out: Compound concentration in brain
readout: concentration at 0.5 h (nM)

// worked examples, concentration at 0.5 h included
### Prompt Endpoint output: concentration at 0.5 h of C=CC(=O)N1C[C@H](n2c(C#CC)c(C(=O)N[C@H](C)c3cc(F)cc(F)c3)c3c(N)ncnc32)C[C@@H]1C [Example 1] . Value?
### Response 1400

### Prompt Consider the molecule C=CC(=O)N1C[C@H](n2c(C#CC)c(C(=O)N[C@H](C)c3ccccc3)c3c(N)ncnc32)C[C@@H]1CC [Example 16] and give its measured concentration at 0.5 h.
### Response 4400

### Prompt // concentration at 0.5 h lookup, key: C=CC(=O)N1C[C@H](n2c(C#CCC)c(C(=O)N[C@H](C)c3ccccc3)c3c(N)ncnc32)C[C@@H]1C [Example 14]
### Response 2100

### Prompt For the molecule C=CC(=O)N1C[C@H](n2c(C#CC)c(C(=O)N[C@H](C)c3ccccc3)c3c(N)ncnc32)C[C@@H]1C [Example 2] , what concentration at 0.5 h is on record?
### Response 1800

### Prompt // query concentration at 0.5 h value for entry C=CC(=O)N1C[C@H](n2c(C#CC3CC3)c(C(=O)N[C@H](C)c3ccccc3)c3c(N)ncnc32)C[C@@H]1C [Example 11]
### Response 2700

### Prompt What does the data say about its concentration at 0.5 h? Entry: C=CC(=O)N1C[C@H](n2c(C#CC3CC3)c(C(=O)NC(C)(C)c3ccccc3)c3c(N)ncnc32)C[C@@H]1C [Example 9]
### Response 2400

1: C=CC(=O)N1C[C@H](n2c(C#CC)c(C(=O)N[C@@H](c3ccccc3)C(F)(F)F)c3c(N)ncnc32)C[C@@H]1C [Example 8]
2: C=CC(=O)N1C[C@H](n2c(C#CC)c(C(=O)N[C@H](C)c3cccc(Cl)c3)c3c(N)ncnc32)C[C@@H]1C [Example 6]
3: C=CC(=O)N1C[C@H](n2c(C#CC)c(C(=O)NC(C)(C)c3ccccc3F)c3c(N)ncnc32)C[C@@H]1C [Example 5]
4: C=CC(=O)N1C[C@H](n2c(C#CC3CC3)c(C(=O)N[C@H](C)c3ccccc3)c3c(N)ncnc32)C[C@@H]1CC [Example 17]
### Prompt Please order the records by their reported concentration at 0.5 h, lowest number first. Reply: labels, ordered per the request.
### Response 2, 3, 1, 4
